Here, each record is paired with measured Percent Effect data.
molecular target: Chromo domain-containing protein 1 (Saccharomyces cerevisiae (strain ATCC 204508 / S288c) (Baker's yeast)) (UniProt P32657); assay: ScCHD-1 Enzyme Inhibition Assay; type: functional; parameters: scale not given: in the data most compounds retested in dose-response had high values; conditions: 30 µM
Sequence (P32657 whole entry, the tested form may be a part): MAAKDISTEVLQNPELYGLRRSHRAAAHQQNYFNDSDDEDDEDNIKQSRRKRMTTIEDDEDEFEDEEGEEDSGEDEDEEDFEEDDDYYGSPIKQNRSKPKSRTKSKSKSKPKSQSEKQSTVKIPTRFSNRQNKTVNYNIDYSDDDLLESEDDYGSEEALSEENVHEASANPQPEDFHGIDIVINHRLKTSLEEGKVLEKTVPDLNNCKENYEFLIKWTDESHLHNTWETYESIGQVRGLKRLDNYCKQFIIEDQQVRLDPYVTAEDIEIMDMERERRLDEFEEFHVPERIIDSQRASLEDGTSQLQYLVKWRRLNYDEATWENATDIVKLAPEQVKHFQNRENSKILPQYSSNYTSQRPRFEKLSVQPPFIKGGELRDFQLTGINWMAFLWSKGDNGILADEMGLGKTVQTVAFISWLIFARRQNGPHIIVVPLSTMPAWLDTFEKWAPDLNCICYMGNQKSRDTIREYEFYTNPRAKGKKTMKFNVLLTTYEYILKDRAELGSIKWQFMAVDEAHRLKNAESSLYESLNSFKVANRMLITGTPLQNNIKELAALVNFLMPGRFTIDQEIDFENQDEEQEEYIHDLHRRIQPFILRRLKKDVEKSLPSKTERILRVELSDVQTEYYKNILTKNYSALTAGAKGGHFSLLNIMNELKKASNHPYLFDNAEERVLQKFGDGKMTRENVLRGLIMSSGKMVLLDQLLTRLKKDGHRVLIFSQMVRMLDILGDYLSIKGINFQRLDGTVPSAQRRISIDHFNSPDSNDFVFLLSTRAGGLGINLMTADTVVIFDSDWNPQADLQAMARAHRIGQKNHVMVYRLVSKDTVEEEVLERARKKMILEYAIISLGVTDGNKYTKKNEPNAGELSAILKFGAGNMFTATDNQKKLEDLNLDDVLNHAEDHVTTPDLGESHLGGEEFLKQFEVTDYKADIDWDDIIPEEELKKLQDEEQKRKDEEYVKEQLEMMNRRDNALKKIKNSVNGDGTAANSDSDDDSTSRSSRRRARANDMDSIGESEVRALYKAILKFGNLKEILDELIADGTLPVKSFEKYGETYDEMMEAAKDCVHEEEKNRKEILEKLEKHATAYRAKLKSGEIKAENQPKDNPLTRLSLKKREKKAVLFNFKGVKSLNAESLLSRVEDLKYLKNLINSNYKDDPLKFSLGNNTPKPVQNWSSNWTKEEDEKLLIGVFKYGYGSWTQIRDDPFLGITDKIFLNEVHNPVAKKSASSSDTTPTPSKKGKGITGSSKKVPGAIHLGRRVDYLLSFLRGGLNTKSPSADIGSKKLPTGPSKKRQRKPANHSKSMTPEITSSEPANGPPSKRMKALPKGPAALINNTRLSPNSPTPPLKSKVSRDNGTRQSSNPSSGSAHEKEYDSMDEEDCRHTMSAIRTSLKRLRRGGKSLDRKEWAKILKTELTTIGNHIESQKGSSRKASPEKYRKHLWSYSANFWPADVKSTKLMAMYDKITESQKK
value-type: Percent Effect (%)

INSERT INTO results (compound, value_type, value_measured) VALUES
  ('Cc1n[nH]c2c1C(c1ccsc1)SCC(=O)N2 (centres undefined)', 'Percent Effect', -7.85),
  ('Cc1cc(CC(=O)N2CCN(CC3CC3)[C@@H]3CS(=O)(=O)C[C@@H]32)ccc1F', 'Percent Effect', -3.03),
  ('Cc1noc(C)c1CN1CCO[C@H]2CNC[C@H]21', 'Percent Effect', -4.21),
  ('O=C(N[C@H]1CN[C@H]2CCCO[C@H]21)c1cscn1', 'Percent Effect', -4.35),
  ('O=C1CSC(c2ccc(O)c(Cl)c2)c2c(n(C3CCOCC3)[nH]c2=O)N1 (centres undefined)', 'Percent Effect', -15.1),
  ('CCN1CCC2(COCc3cnc(NCC4CC4)nc32)C1 (centres undefined)', 'Percent Effect', -0.871),
  ('Cc1cccc(CN2C(=O)C[C@H]3[C@@H]2CCN3CC2CC2)n1', 'Percent Effect', -5.44),
  ('COc1ccc2c(ccn2CCN)c1', 'Percent Effect', -4.41),
  ('COCCN1C[C@H]2[C@@H](C1)N(C(=O)COc1ccccc1)CC[C@H]2OC', 'Percent Effect', 36.6),
  ('c1cnc(NC[C@@H]2CCC[C@@H]3CN(Cc4cc[nH]n4)C[C@@H]32)nc1', 'Percent Effect', -6.02),
  ('CNCCc1nc2cc(F)ccc2[nH]1', 'Percent Effect', -3.45),
  ('c1cncc(N2CCCC3(CN(Cc4cccs4)CCO3)C2)c1 (centres undefined)', 'Percent Effect', -3.66),
  ('Cn1cc(N2C(=O)CC[C@@H]3[C@H]2CCN3Cc2ccncc2)cn1', 'Percent Effect', -7.17),
  ('COC[C@@H]1CCC[C@]12CN(Cc1cccc(C)n1)CCO2', 'Percent Effect', -8.43),
  ('CC[C@H](N)Cn1nc(-c2cccs2)oc1=O', 'Percent Effect', -13.2),
  ('Cc1oc(-c2ccco2)nc1CC(=O)N1CCN(C2CCC2)CC1', 'Percent Effect', -19),
  ('c1cc(COC[C@@H]2CCC[C@@]23CNCCO3)ccn1', 'Percent Effect', -2.52),
  ('Cc1cc(CN2CC[C@H]3C[C@H](C(=O)N(C)C)O[C@@H]3C2)no1', 'Percent Effect', 20.4),
  ('O=C1NC2(CCNCC2)CC1c1cccnc1 (centres undefined)', 'Percent Effect', -2.26),
  ('O=C(c1ccc2c(c1)COC2)N1CCC(Nc2ccccc2)CC1', 'Percent Effect', -6.83),
  ('COC[C@]12COC[C@H]1CN(Cc1cccnc1OC)C2', 'Percent Effect', -3.25),
  ('CCN(CCc1ccccc1)Cn1nc(C)c2c(C)onc2c1=O', 'Percent Effect', -14.1),
  ('O=C(Cc1cccs1)N1C[C@@H]2OCCN(CC3CCCC3)[C@@H]2C1', 'Percent Effect', -1.65),
  ('O=C(C1CC1)N1CCC2(CC1)OCCO2', 'Percent Effect', -6.58);

All values here come from ChEMBL document CHEMBL3988442.
